Source listed as the supplement of paper PMC10567573.

Provide the recorded protein stability index for the entries that follow.
test: protein stability index of a GFP-peptide fusion (GPS, HEK-293T) (PSI 1-6); higher = more stable; conditions: treatment: MLN4924 1 uM, 8 h; c terminus: a fixed tail appended;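 note: 24-mer peptide tiles fused after GFP, lentivirally expressed, FACS-sorted into six equal bins by GFP/DsRed ratio, decoded by Illumina sequencing, PSI is the read-weighted mean bin number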
Give bare numbers.

# count of solved cases: 2
LGTELAERQGNGQQAMSLAILRVI [KCNA3]: 2.52
SKLAQLTLEQILEHLDNLRLNLTN [INTS3]: 2.2

List reported protein stability index for each of these sequences:
1. DSGTCPEVDEEGFTVRPDVTQNST [FCHO1]
2. MVIQLLAIMCVSCICWSPFLVTMA [PTGFR]
3. KECPFRVNKVCGAACSSKRSPIID [SERPINB5]
4. PGPMGPPGPPGPTGVPGSPGHIGP [EMID1]
5. GSGQNEESPRKRKKATEAIDSLRK [FBXO28]
6. LLAAGANVHATTATGDTALTYACE [ANKRD17]
7. YISETVLAIDAIHQLGFIHRDIKP [STK38L]
8. SLQSTGKCLLYCNGVLEPLYLCPN [SLC25A39]

Output line:
[5.4, 3.22, 3.12, 5.18, 5.17, 3.9, 2.56, 2.21]

----------
Provide the recorded protein stability index for the entries that follow.
assay: protein stability index of a GFP-peptide fusion (GPS, HEK-293T) (PSI 1-6); higher = more stable; details: treatment: DMSO; c terminus: a fixed tail appended

# count of solved cases: 4
HRILLLAISLTKCLESTKLLADLK [MIA2]: 2.73
ILVNLQGTVVFLLSLFIPESPRWL [SLC22A15]: 3.12
ADNKIVSHLLVAEPEKIYAMPDPT [ESRRG]: 4.23
SVNDQCGFGVLRLDADAAQRVVYL [TSPAN10]: 2.32

List reported protein stability index for each of these sequences:
1. EEVAKAVLEQEETAAASRERQEEQ [EPB41L3]
2. KEKSSTVPIPTVNQYLYFLFAPTL [SOAT1]
3. ELIKWRAAIVVNGHGMTPLKVAAE [FEM1B]
4. RLRALGERHTMDLTVEGFQSWMWR [TMEM120A]
5. VLDFDFEKLCSISLSHINAYACLV [USP39]
6. FDPLRNEYFFDRNRPSFDAILYYY [KCNA1]

Output line:
1. 5.71
2. 2.57
3. 2.64
4. 2.38
5. 2.83
6. 2.68

List reported protein stability index for each of these sequences:
1. FSQLEDKFPGQSSFLWQRGRKFLQ [TOR1AIP2]
2. PGYLPGAMPPYGQGPPMVPPYQGG [ZNF207]
3. NTEVPARNLYAYIQKLTQIETGEN [PTPRD]

Output line:
2.69
3.57
3.39

----------
assay: protein stability index of a GFP-peptide fusion (GPS, HEK-293T) (PSI 1-6); higher = more stable; conditions: treatment: DMSO; c terminus: a fixed tail appended
protein stability index below 4 gives FALSE; protein stability index at or above it gives TRUE.

YFFKRPYPFVLFYSKFHGLEMCVD [KMT2E]: FALSE
PRVLTLSERPLDFLDLERPPTTPQ [MFF]: TRUE
NARRRLKKENKMTWAPKNKGGEER [IRX6]: TRUE
LQCAMEENCLSASAAQTDPTTGYR [LOXL2]: FALSE

Input line: Is the recorded value of protein stability index equal to or greater than 4 for this sequence? VACGMVHLLIPELGACVAPGGNLI [DNAAF3]
Output line: FALSE

Input line: Is the recorded value of protein stability index equal to or greater than 4 for this sequence? QGRNSLWLSDWVTSYKVMVSNDSH [CPXM2]
Output line: FALSE

Input line: Is the recorded value of protein stability index equal to or greater than 4 for this sequence? YFVSESFEDAKEKMREFTKTIKRP [TPH1]
Output line: FALSE

----------
Provide the recorded protein stability index for the entries that follow.
assay: protein stability index of a GFP-peptide fusion (GPS, HEK-293T) (PSI 1-6); higher = more stable; conditions: treatment: DMSO; c terminus: a fixed tail appended
Give bare numbers.

# count of solved cases: 3
PDVLRTKPAFIGKTNLDGMITVQL [PTPRD]: 2.52
KSCQACRLRKCYEVGMVKCGSRRE [ESR2]: 2.35
LTINPAKRITASEALKHPWICQRS [CAMK2D]: 2.57

List reported protein stability index for each of these sequences:
1. MSFTTRSTFSTNYRSLGSVQAPSY [KRT18]
2. EGGIFTSPNYPSKYPPDRECIYII [NETO1]
3. ARASEGSDSGSDKSLEGGGTAFDA [SMG5]

Output line:
2.37
2.76
5.48

List reported protein stability index for each of these sequences:
1. KLGNLMSLDISGHMILENCSISKM [ZER1]
2. GHAQDLMDGLPPGDSNQLAWFDTD [CTNNB1]
3. TIQKQLKDHSCKDNIREAFQIYDK [EFHC1]
4. GPQSRELTLKVLRSSSCGDTELLG [C2CD2L]
5. GAYGNLKRLYDKAAKMYHQLKKCE [SMG5]

Output line:
[2.1, 4.93, 3.22, 3.47, 2.45]

List reported protein stability index for each of these sequences:
1. ALRKTGQYSGMLDCARRILAREGV [SLC25A25]
2. KSWHDMQTTTAYKKTHETLSHAGQ [TPD52L1]
3. NKRAALQALKRKKRFEKQLTQIDG [CHMP4C]
4. WKNFDERKEMATILSKMPKPKPPP [CCNC]
5. SLGQLPLPPIPHVFSAGTGSAILP [PLAGL1]
6. HAAAVNGDKGALQRLIVGNSALKD [INVS]

Output line:
[2.29, 4.01, 3.95, 3.63, 2.82, 4.29]

List reported protein stability index for each of these sequences:
1. VGELNGYLRDSSPAPCADGPAGGL [PWWP2B]
2. KYELMRPSNKAPLLVLCEDHRGRM [EHMT1]
3. QLQDQDQKLLEQTQIIGEQNARLA [FBXO28]

Output line:
4.29
2.57
4.75

List reported protein stability index for each of these sequences:
1. LPESGLLSVLQIAQQDLAPDPDAW [FANCE]
2. MKCLKVGMLKEGVRLDRVRGGRQK [ESRRG]
3. KLEPMETERSPGPRLQELLGPSPQ [ZNF263]
4. TRILDGGNPFLDVPQALSATTYKH [PSD2]

Output line:
1: 4.06; 2: 3.5; 3: 4.43; 4: 3.62

List reported protein stability index for each of these sequences:
1. LFVIRGQPADVFPRLFKEWNITKL [CRY1]
2. MESSKPGPVQVVLVQKDQHSFELD [ATL3]
3. HCGVLEFVADEGICYLPHWMMQNL [UFD1]
4. RSPSGSLRSARGSRGGTRGWLPSH [RBMY1A1]
5. EKDLVGLAQIAEVLEMFDLRMMVE [RHOBTB1]
6. RVVSWLVSAEGSHPDPAPFCADNP [DVL3]

Output line:
[2.18, 4.35, 2.57, 3.95, 2.46, 2.35]

List reported protein stability index for each of these sequences:
1. KEEDHYQRARKEREKEDYLHLKRQ [RHOBTB2]
2. VPISVTGIAQVKIQGQNKEMLAAA [FLOT1]
3. REAVPALLGEPLAGPELDEMLREV [CABP4]
4. QNLLKELQDLALQGAKERAHQQKK [CHGA]
5. FACPSQALFFKNIMNIIDIVSILP [KCNA4]
6. VVSMTTVGYGDMYPVTIGGKIVGS [KCNA1]
7. RTPSAFPQTPAAPPATLGEGSADT [EHMT1]
8. SSGEDDDFKSCPQGPQGREGLAFL [PWWP2B]

Output line:
1. 4.85
2. 3.52
3. 5.13
4. 4.75
5. 3.02
6. 2.29
7. 5.3
8. 4.75

List reported protein stability index for each of these sequences:
1. FRHDRLRFRDFVDALEDSLEEVAV [PBXIP1]
2. REVILKELAEATWCGISTDMWRSE [ZBED1]

Output line:
1. 3.04
2. 2.71

----------
test: protein stability index of a GFP-peptide fusion (GPS, HEK-293T) (PSI 1-6); higher = more stable; conditions: treatment: DMSO; c terminus: a fixed tail appended
protein stability index below 3 gives not fulfilled; protein stability index at or above it gives fulfilled.

SQEEGKSALEDQGSNPSSSNSSQD [PPFIA4]: fulfilled
AAAHYTGDKASPDQNASTHTPQSS [CLINT1]: fulfilled
PAIADLFAESLQCKVDCEANLTPN [P3H4]: fulfilled
LQSSKNSYSFQNPSSFDPSMLLQR [RNF180]: not fulfilled
AGMGKVTSASFGEESTPGQTNSET [HDAC6]: fulfilled
MIGLYEPELGSGAGPAGTGTPSLL [EMID1]: fulfilled

Now turn to the next sequence.
Input line: Is the recorded value of protein stability index equal to or greater than 3 for this sequence? GLGLEDADWTQGLPWRFEELLTCS [TEX19]
Output line: not fulfilled
